Test system: NCI-H23 lung
METHOD_SUMMARY: NCI tumour cell line growth inhibition, 48 h; in the data active = GI50 below about 0.43 µM; inactive = the rest
Labels: YES for active, NO for inactive

compound=COc1cccc(-c2c[nH]c3c(N/N=C/c4ccncc4)ncnc23)c1 cat=NO
compound="COc1ccc2c(c1)NC1=C(C(=O)OC1)C2c1cc(OC)c2c(c1)OCO2 (stereo not given)" cat=YES
compound=Cc1c(Cl)cccc1C(=O)Nc1nc2c(s1)CN(C(=O)c1ccc(C(F)(F)F)cc1)CC2 cat=YES
compound=Cc1cc(F)ccc1S(=O)(=O)Nc1cc(-c2c(O)ccc3ccccc23)c(O)c2ccccc12 cat=NO
compound="CC1=C(C(=O)Nc2ccc3n[nH]c(C)c3c2)C(c2ccc(C(F)(F)F)cc2)CC(=O)N1 (stereo not given)" cat=NO
compound=Cc1cc(NCCCN(C)C)c2ccc3c(ccc4c(NCCCN(C)C)cc(C)nc43)c2n1 cat=YES
compound="Cc1ccccc1OCC(O)CN1CCN(c2ccc(Cl)cc2)CC1 (stereo not given)" cat=NO
compound=O=C(N/N=C/C=C/c1ccc([N+](=O)[O-])o1)c1cc2ccccc2cc1O cat=NO
compound=O=C1C(Nc2ccc(Cl)cc2)=C(I)C(=O)c2ncccc21 cat=NO
compound="O=C1OCC2=C1C(c1cccc(Cl)c1)c1cc3c(cc1N2CCO)OCCO3 (stereo not given)" cat=YES

====

Tested on: DMS 114 small cell lung
METHOD_SUMMARY: NCI tumour cell line growth inhibition, 48 h
MEASURED_METRIC: TGI (µM)

molecule=O=S(=O)(/C=C/c1ccc(F)cc1)Cc1ccc(CS(=O)(=O)/C=C/c2ccc(F)cc2)cc1 measured_metric=TGI unit_spec=µM censoring_operator=> observed_value=100
molecule="Cc1ccc2c(c1)-c1c3c(nn1-c1ccccc1)-c1ccccc1SC3O2 (centres undefined)" measured_metric=TGI unit_spec=µM censoring_operator=> observed_value=100
molecule=CC1=NN(C(=O)c2ccccc2O)C(=O)/C1=C/c1ccc(O)cc1 measured_metric=TGI unit_spec=µM censoring_operator== observed_value=16.1
molecule=COc1cc2c[n+](C)c3c4cc(OC)c(OC(C)C)cc4ccc3c2cc1OC measured_metric=TGI unit_spec=µM censoring_operator== observed_value=26.7

====

Tested on: HS 578T breast
METHOD_SUMMARY: NCI tumour cell line growth inhibition, 48 h
MEASURED_METRIC: TGI (µM)

molecule=CC(=C(c1ccccc1)c1ccccc1)N1C(=O)CC(=O)N1C measured_metric=TGI unit_spec=µM censoring_operator== observed_value=55.4
molecule="Cc1ccc(OCC2OC(n3cnc4nc(N)nc(Cl)c43)CC2Oc2ccc(C)cc2)cc1 (stereo unspecified)" measured_metric=TGI unit_spec=µM censoring_operator== observed_value=45.6
molecule=CC(=O)N1CC(C)(C)c2c(C)c(O)c(C)c(C)c21 measured_metric=TGI unit_spec=µM censoring_operator=> observed_value=100
molecule="CC(=O)NCCC1CN(C(=O)/C=C/I)c2ccccc21 (stereo unspecified)" measured_metric=TGI unit_spec=µM censoring_operator== observed_value=37
molecule=Cc1cc(F)ccc1S(=O)(=O)Nc1cc(-c2c(O)ccc3ccccc23)c(O)c2ccccc12 measured_metric=TGI unit_spec=µM censoring_operator== observed_value=10.2
molecule=COc1cc2c(cc1OC)[C@H](C)N1CCc3cc(OC)c(OC)cc3[C@@H]1C2 measured_metric=TGI unit_spec=µM censoring_operator=> observed_value=100
molecule=C/C(O)=C(/C=N/C(=S)Nc1ccc(S(N)(=O)=O)cc1)C(=O)Nc1ccccc1C measured_metric=TGI unit_spec=µM censoring_operator=> observed_value=100
molecule=O=C1C(Nc2ccc(Cl)cc2)=C(I)C(=O)c2ncccc21 measured_metric=TGI unit_spec=µM censoring_operator== observed_value=6.44
molecule=COc1ccc2c(c1)c(CC(=O)[Se]C)c(C)n2C(=O)c1ccc(Cl)cc1 measured_metric=TGI unit_spec=µM censoring_operator=> observed_value=0.942
molecule="O=C1CCCCCCCCCCC1CN1CCCC1 (stereo unspecified)" measured_metric=TGI unit_spec=µM censoring_operator== observed_value=84.7
molecule="CC1CCC/C1=C(/I)C(=O)c1ccccc1 (stereo unspecified)" measured_metric=TGI unit_spec=µM censoring_operator=> observed_value=100

Just for reference, PubChem BioAssay (NCI) is where these values come from.
